tested on: SN12C; assay: NCI tumour cell line growth inhibition, 48 h
Active and inactive are the calls of the source. No stated cut-off is given here; in the data, active = GI50 up to about 1.1 µM and inactive = higher. Peptide text beside a SMILES is read from it. * marks the point of attachment. Boc = CC(C)(C)OC(=O)*
Lab note: assign the record to one of true (1) for active, false (0) for inactive

What did this assay record as the result for CC1CC[C@@]2(OC1)OC1C[C@H]3[C@@H]4CC=C5CC(OC6OC(CO)C(OC7OC(CO)C(O)C(OC8OCC(O)C(O)C8O)C7OC7OC(CO)C(O)C(O)C7O)C(O)C6O)CCC5(C)[C@H]4CCC3(C)C1[C@@H]2C (stereo partly drawn) ?
false (0)

What did this assay record as the result for Cc1ccc2nc(Cl)c(/C=N/N3C(=O)/C(=C/c4ccc(N(C)C)cc4)N=C3c3ccccc3)cc2c1 ?
false (0)

What did this assay record as the result for COc1ccc(C(=O)C(C(=O)C(=O)Nc2nccs2)c2ccc(OC)cc2)cc1 (stereo not drawn) ?
false (0)

What did this assay record as the result for CO[C@@H]1C[C@H]2[C@@H]3CC[C@H]([C@H](C)COC(C)=O)[C@@]3(C)CC[C@@H]2[C@@]2(C)CC[C@H]3C[C@]312 ?
false (0)

What did this assay record as the result for CCOC(=O)c1c(O)cc(=O)[nH]c1N1CCOCC1 ?
false (0)

What did this assay record as the result for COC(=O)C(Cc1c[nH]c2ccccc12)NC(=O)C(Cc1c[nH]c2ccccc12)NC(=O)C(Cc1c[nH]c2ccccc12)NC(=O)C(Cc1c[nH]c2ccccc12)NC(=O)C(Cc1c[nH]c2ccccc12)NC(=O)OC(C)(C)C (stereo not drawn) (Boc-WWWWW-OMe; configuration not given here) ?
false (0)

What did this assay record as the result for O=C(CC(=O)c1cccc2ccccc12)C(=O)Nc1nccs1 ?
false (0)

What did this assay record as the result for COc1ccc(CC2C(=O)NC(C)C(=O)N(C)C3Cc4ccc(cc4)Oc4cc(ccc4O)CC(C(=O)NC(C)C(=O)NC(C)C(=O)N2C)N(C)C3=O)cc1 (stereo not drawn) ?
true (1)

What did this assay record as the result for CC1=NN2C(c3ccc(C)cc3)=CSC2=NC(C)(C)C1 ?
false (0)

What did this assay record as the result for COc1ccc(S(=O)(=O)n2c3c(c4ccccc42)[C@@H]2[C@@H](CCCN2C(=O)C[S+]([O-])c2ccc(C)cc2)[C@H](Cl)C3)cc1 (stereo partly drawn) ?
false (0)

What did this assay record as the result for CC1=CCCC2C1(C)CCC(C)C2(C)Cc1cc(O)ccc1O (stereo not drawn) ?
false (0)

What did this assay record as the result for Cc1ccc(/N=N/NCCCCN/N=N/c2ccc(C)cc2)cc1 ?
false (0)

What did this assay record as the result for CC1(C)CC(=O)C2=C(C1)NC(=S)C(C#N)C2c1ccccc1 (stereo not drawn) ?
false (0)

What did this assay record as the result for NC(Cc1c[nH]c2ccccc12)P(=O)(O)O (stereo not drawn) ?
false (0)

What did this assay record as the result for COc1cc(C(C)c2cc3c(cc2OCCNC(=O)COc2cc4c(cc2C(C)c2cc(OC)c(OC)c(OC)c2)OCO4)OCO3)cc(OC)c1OC (stereo not drawn) ?
false (0)

What did this assay record as the result for COc1ccc(C2CC(c3ccc4ccccc4c3O)=NN2C(C)=O)cc1OC (stereo not drawn) ?
false (0)

What did this assay record as the result for Nc1ccc(Cc2ccc(N)c(C(=O)O)c2)cc1C(=O)O ?
false (0)

What did this assay record as the result for CCc1cccc(CC)c1NC(=S)NC(=O)c1ccc(Br)cc1 ?
false (0)

What did this assay record as the result for O=C1CCCCC1CN1CCCCC1 (stereo not drawn) ?
false (0)

What did this assay record as the result for O=C1C[C@@H](Sc2ccccc2)C2(OCCO2)C2ON3CCCC[C@H]3[C@H]12 (stereo partly drawn) ?
false (0)

What did this assay record as the result for C/C=C/C=C/C1=NN(c2cccc(S(=O)(=O)O)c2)C2(C1)C(Cl)C(=O)N2c1nc2ccccc2s1 (stereo not drawn) ?
false (0)

What did this assay record as the result for C#CCCCC(=O)N(C(=O)C[S+]([O-])CC)c1ccccc1 (stereo not drawn) ?
false (0)

What did this assay record as the result for CCOC(=O)/C=C1\CCCC12OCCO2 ?
false (0)

What did this assay record as the result for CCC1=NC(C(F)(F)F)(C(F)(F)F)N=C(N2CCOCC2)O1 ?
false (0)

What did this assay record as the result for CC(CN(C)C)C(O)(c1ccccc1)c1ccccc1 (stereo not drawn) ?
false (0)

What did this assay record as the result for Nc1nc(N)c(-c2ccccc2)c(C(=O)Nc2nccs2)n1 ?
false (0)

What did this assay record as the result for O=S(=O)(c1ccccc1)n1c2cc3cccnc3nc2c2cccnc21 ?
false (0)

What did this assay record as the result for O=C(/C=C\c1cccc2ccccc12)c1ccc(Cl)cc1Cl ?
false (0)

What did this assay record as the result for COC(C/C=C\C=C\CC/C=C/CC(C)/C=C/C(=C\C(=O)O)CC(=O)O)/C(C)=C\C=C(/C)C(=O)O (stereo not drawn) ?
false (0)

What did this assay record as the result for CC1(C)CC2=NO[Se]3=C2C(=NO3)C1 ?
false (0)

What did this assay record as the result for Cn1c(-c2ccccc2)cc2c3ccsc3c3ccsc3c21 ?
false (0)

What did this assay record as the result for O=C(O)c1nc2ccccc2nc1Nc1ccc(Cl)c(Cl)c1 ?
false (0)

What did this assay record as the result for CC(=O)Nc1ccc(-c2nnc(SCC(=O)Nc3ccccc3[N+](=O)[O-])o2)cc1 ?
false (0)

What did this assay record as the result for COc1ccc2nc3cc(Cl)ccc3c(NCCCN3CCN(CCCNc4ccc5nnn6c7ccccc7c(=O)c4c56)CC3)c2c1 ?
false (0)

What did this assay record as the result for CCCCCC(=O)Nc1[nH]nnc1C#N ?
false (0)

What did this assay record as the result for COc1ccc(/C=C(/C(=O)c2ccc(Cl)cc2)N2C=CC=CC2=C(C#N)C#N)cc1OC ?
false (0)

What did this assay record as the result for c1ccc2c(c1)nnn2CN1CCOCC1 ?
false (0)

What did this assay record as the result for CC(C)(C)C(=O)C(N)C(=O)C(C)(C)C ?
false (0)
